- study_target: T1, human CD47 expressed on cells (CD47 expressing CHO cells, Jurkat, HL60, DLD1, Raji) (human, UniProt Q08722 19-292)
- T1 construct: also called CHO-CD47; IAP
- assay_summary: flow cytometry on human red blood cells, donor 2, MFI; EC50 (nM) table beside the legend
assay_readout: log10 of EC50 (log10 of the value in nM)
In our notation, the value equals log10 of EC50 in nM.

Worked examples follow.
ABU3 (antibody, V domains shown, Murine hybridoma monoclonal antibody) VH: EVQLQQSGAELVKPGASVKLSCTASGFTIKDTYMHWVKQRPEQGLEWIGRIDPAKDNTKYDPKFQGKATITLDTSSNIAYLQLSSLTSEDTAVYFCARGHYGSSYVVYWGQGTLVTVSA VL: NILMTQSPKSMSMSVGERVTLSCKASENVGTYVSWYQQKPDQSPKLLIYGASNRYTGVPDRFTGSGSATDFTLTISSVQAEDLADYHCGQSYSYPLTFGAGTKLELK | 0.17
ABU5 (antibody, V domains shown, Murine hybridoma monoclonal antibody; also called ABUS [sic]) VH: QVQLQQPGAELVKPGASVKMSCKASGYTFTNYWIAWVKRRPGQGLEWIGDFYPGNTSTNYNEKFKTKATLTIDTSSSTAYMQLSSLTSEDSAVYYCARRGRGGSSYWGQGTTLTVSS VL: DVLMTQTPLSLPVSLGEQASISCRSSQSIVHSNGNTYLEWYLQKPGQSPKLLIYRVANRFSGVPDRFSGSGSGTDFTLKISRVEAEDLGVYYCFQGSHVPWTFGGGTKLEIK | -0.07
ABU2 (antibody, V domains shown, Murine hybridoma monoclonal antibody) VH: QVQLQQPGAELVRPGASVKLSCKASGYTFTNYWMNWFKQRPEQGLEWIGRIDPYDSETLYNQKFKDKAILTVDKSSSTAYMQLSSLTSEDSAVYYCAGGGKGGFGYWGQGTLVTVSA VL: DVLMTQTPLSLPVSLGDQASISCRSSQSIVYSNGNTYLEWYLQKPGQSPKLLIYKVSNRFSGVPDRFSGSGSGTDFTLKISRVEAEDLGVYYCFQGSHVPYTFGGGTKLEIK | -0.60
ABU4 (antibody, V domains shown, Murine hybridoma monoclonal antibody) VH: QVQLQQSGPQLVRPGASVKISCKTSGYSFTNYWMQWVKQRPGQGLEWIGMIDPSDSESRLNQKFKDKATLTVDKSSSTAYMQLSSPTFEDSAVYYCARRGSPMITSFAYWGQGTLVTVSA VL: DVQITQSPSFLAASPGETITINCRASKNIGKYLAWFQEKPGKTNKLLIYSGSTLQSGIPSRFSGSGSGTDFTLTISSLEPEDFAIYYCQQHNEYPYTFGGGTKLEIK | -0.47

Would you kindly look at the next entry?
*Q* Which log10 of EC50 value belongs to ABU1 (antibody, V domains shown, Murine hybridoma monoclonal antibody) VH: EVKLVESGGGLVQPGGSRKLSCAASGFTFSDYGMAWVRQAPGKGPECVAFISNLAKRIYYVDTVTGRFTISRENAKNTLYLEMSSLRSEDTAMYYCTRAYRYALDYWGQGTTLTVSS VL: QIVLTQSPAIMSASPGEKVTMTCSASSSVSYMNWYQQKSGTSPKRWIYDTSKLASGVPARFSGSGSGTSYSLTISSMEAEDAATYYCQQWNSNPPTFGTGTKLELK ?
*A* -0.92
